As shown below, each of these compounds has a reported DC50 value.
# SYSTEM: IRAK4 (Homo sapiens, UniProt Q9NWZ3)
# Construct: endogenous in cells; host or cells: OCI-LY10
# Sequence (Q9NWZ3 whole entry): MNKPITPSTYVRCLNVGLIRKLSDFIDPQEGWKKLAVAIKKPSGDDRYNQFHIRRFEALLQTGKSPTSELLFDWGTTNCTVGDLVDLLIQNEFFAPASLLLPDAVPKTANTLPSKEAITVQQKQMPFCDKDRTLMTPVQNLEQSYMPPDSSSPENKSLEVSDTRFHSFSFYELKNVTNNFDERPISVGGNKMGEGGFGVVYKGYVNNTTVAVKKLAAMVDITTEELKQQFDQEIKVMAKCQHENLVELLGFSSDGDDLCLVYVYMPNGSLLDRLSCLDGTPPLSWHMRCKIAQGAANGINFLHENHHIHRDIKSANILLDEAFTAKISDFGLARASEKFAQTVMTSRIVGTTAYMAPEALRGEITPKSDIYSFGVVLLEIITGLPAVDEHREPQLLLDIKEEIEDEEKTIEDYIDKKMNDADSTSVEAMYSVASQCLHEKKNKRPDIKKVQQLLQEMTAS
# TEST METHOD NOTES: IRAK4 MSD Degradation in OCI-LY10
# Assay type: cell-based
# EXPERIMENTAL PARAMETERS: OCI-LY10 cells, 4 hrs incubation, read-out: IRAK4 degradation in OCI-LY10 at 4 hrs: DC50

COMPOUND: COc1cc2nn([C@H]3CC[C@H](CN4CC(c5cccc6c5n(C)c(=O)n6C5CCC(=O)NC5=O)C4)CC3)cc2cc1NC(=O)c1cccc(C(C)(C)F)n1 (some centres unmarked)
DC50: 50 to 100 nM
--
COMPOUND: COc1cc2nn([C@H]3CC[C@H](CN4CCC5(CC4)CC(CNc4cccc6c4n(C)c(=O)n6C4CCC(=O)NC4=O)C5)CC3)cc2cc1NC(=O)c1cccc(C(F)(F)F)n1 (some centres unmarked)
DC50: 50 to 100 nM
--
COMPOUND: Cn1c(=O)n(C2CCC(=O)NC2=O)c2cccc(CN3CC4(CN(Cc5ccc(-n6cc7cc(NC(=O)c8cccc(C(F)(F)F)n8)c(C(C)(C)O)cc7n6)cc5)C4)C3)c21 (centres unmarked)
DC50: 50 to 100 nM
--
COMPOUND: Cn1c(=O)n(C2CCC(=O)NC2=O)c2ccc(C3CCN(C[C@H]4CC[C@H](n5cc6cc(NC(=O)c7cccc(C(C)(C)F)n7)c(C(F)F)cc6n5)CC4)CC3)cc21 (some centres unmarked)
DC50: < 50 nM
--
COMPOUND: CN(C[C@H]1CC[C@H](n2cc3cc(NC(=O)c4cnn5cccnc45)c(C(C)(C)O)cc3n2)CC1)C1CCN(Cc2cccc3c2n(C)c(=O)n3C2CCC(=O)NC2=O)CC1 (some centres unmarked)
DC50: < 50 nM
--
COMPOUND: COc1cc2nn([C@H]3CC[C@H](CN4CCC5(CC4)CN(Cc4cccc6c4n(C)c(=O)n6C4CCC(=O)NC4=O)CCO5)CC3)cc2cc1NC(=O)c1cccc(C(F)(F)F)n1 (some centres unmarked)
DC50: 50 to 100 nM
--
COMPOUND: COc1cc2nn([C@H]3CC[C@H](CN(C)C4CCN(c5cccc6c5n(C)c(=O)n6C5CCC(=O)NC5=O)CC4)CC3)cc2cc1NC(=O)c1cccc(C(F)(F)F)n1 (some centres unmarked)
DC50: < 50 nM
--
COMPOUND: COc1cc2nn([C@H]3CC[C@H](CN4CCC(c5ccc6c(c5)n(C)c(=O)n6C5CCC(=O)NC5=O)CC4)CC3)cc2cc1NC(=O)c1cccc(C(F)(F)F)n1 (some centres unmarked)
DC50: < 50 nM
--
COMPOUND: CN(C[C@H]1CC[C@H](n2cc3cc(NC(=O)c4cccc(C(F)(F)F)n4)c(N4CCOCC4)cc3n2)CC1)C1CCN(Cc2cccc3c2n(C)c(=O)n3C2CCC(=O)NC2=O)CC1 (some centres unmarked)
DC50: 50 to 100 nM
--
COMPOUND: CN(C[C@H]1CC[C@H](n2cc3cc(NC(=O)c4cccc(C(F)(F)F)n4)c(N4C[C@@H]5C[C@H]4CO5)cc3n2)CC1)C1CCN(c2cccc3c2n(C)c(=O)n3C2CCC(=O)NC2=O)CC1 (some centres unmarked)
DC50: < 50 nM
--
COMPOUND: Cn1c(=O)n(C2CCC(=O)NC2=O)c2cccc(NCC3CC4(CCN(C[C@H]5CC[C@H](n6cc7cc(NC(=O)c8cccc(C(F)(F)F)n8)c(C(C)(C)O)cc7n6)CC5)CC4)C3)c21 (some centres unmarked)
DC50: < 50 nM
